Every entry's value here was drawn from paper PMC12297423.

TEST SYSTEM: porcine pancreatic α-amylase (Sus scrofa)
Construct: purchased BioVision K482-100
Sequence (P00690 16-511): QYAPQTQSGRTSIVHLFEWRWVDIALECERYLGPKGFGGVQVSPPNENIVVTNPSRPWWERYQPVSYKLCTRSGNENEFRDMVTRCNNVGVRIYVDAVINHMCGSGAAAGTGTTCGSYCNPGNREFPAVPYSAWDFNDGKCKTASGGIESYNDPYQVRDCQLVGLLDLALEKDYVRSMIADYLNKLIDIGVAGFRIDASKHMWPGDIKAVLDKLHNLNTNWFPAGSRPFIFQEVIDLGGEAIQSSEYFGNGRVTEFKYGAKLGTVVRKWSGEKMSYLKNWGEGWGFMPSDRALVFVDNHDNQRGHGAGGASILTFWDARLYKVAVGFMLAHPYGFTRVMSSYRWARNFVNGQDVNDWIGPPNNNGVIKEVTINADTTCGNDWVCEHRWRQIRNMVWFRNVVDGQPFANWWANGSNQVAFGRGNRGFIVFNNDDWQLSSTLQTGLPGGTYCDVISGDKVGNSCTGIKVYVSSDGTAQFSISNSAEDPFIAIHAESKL
PROTOCOL DESCRIPTION: In vitro α-amylase inhibition assay (BioVision kit / modified DNSA method)
Type: biochemical
EXPERIMENTAL SETUP: conc 0.1 (µg/mL), Table 1S
Rule: %inh α-amylase of 40% or more gives satisfied; anything lower gives not satisfied.

COc1ccc(Cc2nnc(SCC(=O)Nc3ccc(C(=O)O)cc3)n2-c2ccccc2)cc1 = not satisfied
COc1ccc(Cc2nnc(SCC(=O)Nc3ccc(C(C)=O)cc3)n2-c2ccccc2)cc1 = satisfied
CCOC(=O)c1ccc(NC(=O)CSc2nnc(Cc3ccc(OC)cc3)n2-c2ccccc2)cc1 = not satisfied
COc1ccc(Cc2nnc(SCC(=O)Nc3ccc(Br)cc3)n2-c2ccccc2)cc1 = satisfied
COc1ccc(Cc2nnc(SCC(=O)Nc3ccccc3)n2-c2ccccc2)cc1 = not satisfied

Then this compound:
Item COc1ccc(Cc2nnc(SCC(=O)Nc3ccc(O)cc3)n2-c2ccccc2)cc1 with %inh α-amylase of 40% or above?
not satisfied
